These entries and their values trace back to patent US10285989B2.

SYSTEM_TESTED: UniProtKB B3VTJ2
Sequence (B3VTJ2 1-941): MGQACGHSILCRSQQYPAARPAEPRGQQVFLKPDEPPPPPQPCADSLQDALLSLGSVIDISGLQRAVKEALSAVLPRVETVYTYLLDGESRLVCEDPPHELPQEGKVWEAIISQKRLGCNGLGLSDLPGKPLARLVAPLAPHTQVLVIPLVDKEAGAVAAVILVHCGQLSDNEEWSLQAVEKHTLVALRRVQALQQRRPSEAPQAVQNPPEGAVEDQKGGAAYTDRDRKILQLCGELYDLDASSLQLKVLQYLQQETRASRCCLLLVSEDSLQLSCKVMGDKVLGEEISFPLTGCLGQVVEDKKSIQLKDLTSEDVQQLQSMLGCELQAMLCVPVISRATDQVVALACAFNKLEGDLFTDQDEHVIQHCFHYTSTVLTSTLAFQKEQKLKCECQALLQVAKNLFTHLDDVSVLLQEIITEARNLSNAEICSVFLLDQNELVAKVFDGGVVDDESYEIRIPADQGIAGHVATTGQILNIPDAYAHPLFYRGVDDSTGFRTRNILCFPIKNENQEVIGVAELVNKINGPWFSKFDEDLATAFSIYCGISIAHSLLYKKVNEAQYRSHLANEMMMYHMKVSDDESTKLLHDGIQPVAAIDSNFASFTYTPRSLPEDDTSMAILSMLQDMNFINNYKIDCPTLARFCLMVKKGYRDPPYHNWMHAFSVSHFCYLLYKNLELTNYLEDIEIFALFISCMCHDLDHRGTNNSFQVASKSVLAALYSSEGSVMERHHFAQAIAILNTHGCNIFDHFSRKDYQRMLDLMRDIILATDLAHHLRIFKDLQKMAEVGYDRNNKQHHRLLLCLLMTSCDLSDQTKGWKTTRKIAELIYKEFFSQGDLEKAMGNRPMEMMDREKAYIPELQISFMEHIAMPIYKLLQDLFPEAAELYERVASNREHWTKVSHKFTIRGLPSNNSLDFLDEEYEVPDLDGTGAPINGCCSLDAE
EXPERIMENTAL_DETAILS: PDE2 fluorescence polarization (IMAP FP) inhibition assay, rhesus PDE2A3
Format: biochemical, rhesus macaque
CONDITIONS_USED: Lab A; read-out: Rhesus PDE2 Ki (nM) - Lab A
Kindly apply the following: Y if Ki is less than 2 nM, N in every other case.

Could you please tell me whether Ki recorded for CN(C)c1nc(C(=O)N[C@@H](c2ccc(OC(F)(F)F)cc2)C2CC2)cc(=O)[nH]1 is less than 2 nM?
Y

Bench note: check whether C[C@@H](NC(=O)c1cc(=O)[nH]c(N2CC(F)(F)C2)n1)c1ccc(C(F)(F)F)cc1 shows Ki below 2 nM
N

hey, is Ki for CNc1nc(C(=O)N[C@@H](c2ccc(SC(F)(F)F)c(F)c2)C(C)C)cc(=O)[nH]1 lower than 2 nM or not?
N

Please state whether Ki is below 2 nM for C[C@@H](NC(=O)c1cc(=O)[nH]c(N(C)C)n1)c1ccc(S(F)(F)(F)(F)F)cc1
Y

A record lists CC[C@@H](NC(=O)c1cc(=O)[nH]c(N2CCCC2)n1)c1ccc(SC(F)(F)F)c(F)c1 . Is its Ki below 2 nM?
Y

Hi there! Is Ki for CC(C)[C@@H](NC(=O)c1cc(=O)[nH]c(N2CC[C@H](F)C2)n1)c1ccc(SC(F)(F)F)c(F)c1 below 2 nM, do you know?
Y

Answer whether the compound CSc1nc(C(=O)N[C@@H](C)c2ccc(C(F)(F)F)cc2)cc(=O)[nH]1 has Ki strictly less than 2 nM
N

Lab log: compare recorded Ki with 2 nM; is it strictly lower for CC(C)[C@@H](NC(=O)c1cc(=O)[nH]c(N)n1)c1ccc(SC(F)(F)F)cc1 ?
N

Is Ki strictly under 2 nM for the entry CNCCOc1nc(C(=O)NC(C)c2ccc(C(F)(F)F)cc2)cc(=O)[nH]1 (stereo not shown) ?
N

Please check: Ki for C[C@@H](NC(=O)c1cc(=O)[nH]c(N2Cc3ccncc3C2)n1)c1ccc(C(F)(F)F)cc1 , strictly under 2 nM or not?
Y

Answer whether the compound CC[C@@H](NC(=O)c1cc(=O)[nH]c(N(C)C)n1)c1ccc(C(F)(F)F)c(F)c1 has Ki strictly less than 2 nM
Y

# check: Ki < 2 nM for CC(C)[C@@H](NC(=O)c1cc(=O)[nH]c(N(C)C)n1)c1ccc(SC(F)(F)F)c(F)c1
Y

Determine whether this compound shows Ki lower than 2 nM (ties excluded): CC(C)[C@@H](NC(=O)c1cc(=O)[nH]c(N(C)C)n1)c1ccc(SC(F)(F)F)cc1
Y

Below 2 nM on Ki? Entry C[C@@H](NC(=O)c1cc(=O)[nH]c(NC2CC2)n1)c1ccc(C(F)(F)F)cc1
N

Strictly below 2 nM in Ki? CC(NC(=O)c1cc(=O)[nH]c(OC2COC2)n1)c1ccc(C(F)(F)F)cc1 (stereo not shown)
N

----------
SYSTEM_TESTED: human PDE2A1 (Homo sapiens (Human), UniProt O00408)
Sequence (O00408 other isoform, or with tags, fused parts or gaps): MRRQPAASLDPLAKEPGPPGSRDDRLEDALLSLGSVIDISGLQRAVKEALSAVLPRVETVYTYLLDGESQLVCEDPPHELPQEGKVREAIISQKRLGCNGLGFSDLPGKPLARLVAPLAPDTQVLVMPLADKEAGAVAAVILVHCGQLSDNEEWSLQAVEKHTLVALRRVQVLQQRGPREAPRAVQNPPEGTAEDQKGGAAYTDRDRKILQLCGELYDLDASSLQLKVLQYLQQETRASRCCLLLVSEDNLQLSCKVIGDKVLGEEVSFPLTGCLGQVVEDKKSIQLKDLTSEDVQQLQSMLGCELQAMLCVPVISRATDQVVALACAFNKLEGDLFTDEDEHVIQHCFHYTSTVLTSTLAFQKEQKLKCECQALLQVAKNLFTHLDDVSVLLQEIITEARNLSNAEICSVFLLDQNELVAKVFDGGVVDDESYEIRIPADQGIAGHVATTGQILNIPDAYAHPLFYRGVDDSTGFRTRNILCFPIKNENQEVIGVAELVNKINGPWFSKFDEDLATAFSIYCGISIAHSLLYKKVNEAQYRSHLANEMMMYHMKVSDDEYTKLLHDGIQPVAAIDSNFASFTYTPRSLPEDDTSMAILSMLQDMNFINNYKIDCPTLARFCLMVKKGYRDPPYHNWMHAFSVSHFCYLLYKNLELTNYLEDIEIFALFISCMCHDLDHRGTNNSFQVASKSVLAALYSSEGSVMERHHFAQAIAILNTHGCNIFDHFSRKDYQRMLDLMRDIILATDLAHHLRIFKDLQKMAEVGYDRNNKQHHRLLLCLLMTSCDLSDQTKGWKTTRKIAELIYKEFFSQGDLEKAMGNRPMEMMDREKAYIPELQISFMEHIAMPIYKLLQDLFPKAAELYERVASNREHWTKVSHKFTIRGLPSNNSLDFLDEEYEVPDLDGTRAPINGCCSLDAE
EXPERIMENTAL_DETAILS: PDE2 IMAP FP inhibition assay, human PDE2A1 (selectivity panel format)
Format: biochemical
CONDITIONS_USED: Lab B; read-out: Human PDE2 Ki (nM) - Lab B
# note: exactly 2 nM is not below, so it is rule not met; use rule met for Ki strictly under it

Find out if reported Ki for CN(C)c1nc(C(=O)N[C@@H](c2ccc(S(F)(F)(F)(F)F)cc2)C(C)(C)O)cc(=O)[nH]1 [Example 211] is less than 2 nM
rule met

In plain terms, does CN(C)c1nc(C(=O)N[C@@H](c2ccc(C3CC3)cc2)C2(C)CC2)cc(=O)[nH]1 [Example 71] come in under 2 nM for Ki?
rule met

Below 2 nM on Ki? Entry CN(C)c1nc(C(=O)N[C@@H](c2ccc(C(C)(C)C)cc2)C2(C)CC2)cc(=O)[nH]1 [Example 44]
rule met

A record lists CN(C)c1nc(C(=O)N[C@@H](c2ccc(C3CC3)cc2)C(C)(C)C)cc(=O)[nH]1 [Example 35] . Is its Ki below 2 nM?
rule met

Check if Ki falls below 2 nM for C[C@H](NC(=O)c1cc(=O)[nH]c(N(C)C)n1)c1ccc(S(F)(F)(F)(F)F)cc1F [Example 117] .
rule not met

Decide: Ki of CN(C)c1nc(C(=O)N[C@@H](c2ccc(S(F)(F)(F)(F)F)cc2)C(C)(C)C)cc(=O)[nH]1 [Example 38] strictly below 2 nM?
rule met

Please indicate whether the reported Ki of CN(C)c1nc(C(=O)N[C@H]2CCCc3cc(C(F)(F)F)ccc32)cc(=O)[nH]1 [Example 204] is strictly below 2 nM.
rule not met

Does CC(C)[C@@H](NC(=O)c1cc(=O)[nH]c(N(C)C)n1)c1ccc(SC(F)(F)F)c(F)c1 [Example 150] have Ki strictly under 2 nM?
rule met

Strictly below 2 nM: is that where Ki of CN(C)c1nc(C(=O)N[C@@H](c2ccc(C(F)(F)F)cc2)C(C)(C)C)cc(=O)[nH]1 [Example 2] sits?
rule met

Strictly below 2 nM in Ki? CC(NC(=O)c1cc(=O)[nH]c(N(C)C)n1)c1ccc(C2(C(F)(F)F)CC2)cc1 (single isomer, unassigned) [Example 126]
rule not met

Dear colleague, could you confirm whether Ki of CC(C)[C@@H](NC(=O)c1cc(=O)[nH]c(N2CC[C@H](F)C2)n1)c1ccc(OC(F)(F)F)c(F)c1 [Example 162] falls below 2 nM? Thanks.
rule met

Strictly below 2 nM: is that where Ki of CC[C@@H](NC(=O)c1cc(=O)[nH]c(N(C)C)n1)c1ccc(OC(F)(F)F)cc1 [Example 105] sits?
rule met

Is it true that Ki reported for CN(C)c1nc(C(=O)NC2(c3ccc(C(F)(F)F)c(F)c3)CC2)cc(=O)[nH]1 [Example 94] is less than 2 nM?
rule met

Identify whether the compound CC[C@@H](NC(=O)c1cc(=O)[nH]c(N(C)C)n1)c1ccc(S(F)(F)(F)(F)F)cc1 [Example 5] records Ki below 2 nM.
rule met

Input CN(C)c1nc(C(=O)N[C@@H](c2ccc(C(F)(F)F)cc2F)C(C)(C)C)cc(=O)[nH]1 [Example 37] ; condition: Ki strictly below 2 nM. Does it hold?
rule met

hey, is Ki for CC[C@@H](NC(=O)c1cc(=O)[nH]c(N(C)C)n1)c1ccc(C(F)(F)F)c(F)c1 [Example 106] lower than 2 nM or not?
rule met

Field: below-cutoff. Rule: recorded Ki strictly less than 2 nM. Subject: C[C@H]1C[C@]1(NC(=O)c1cc(=O)[nH]c(N(C)C)n1)c1ccc(C(F)(F)F)cc1 (single isomer, unassigned; enantiomer b) [Example 175]
rule met

Is Ki of CC(C)[C@@H](NC(=O)c1cc(=O)[nH]c(N(C)C)n1)c1ccc(C(C)(F)F)c(F)c1 [Example 77] strictly below 2 nM?
rule met

Does the reported Ki of the following compound sit strictly below 2 nM? CN(C)c1nc(C(=O)N[C@@](C)(CO)c2ccc(C(F)(F)F)cc2Cl)cc(=O)[nH]1 [Example 209]
rule not met

Determine whether this compound shows Ki lower than 2 nM (ties excluded): CC(C)[C@@H](NC(=O)c1cc(=O)[nH]c(N(C)C)n1)c1ccc(C(C)(F)F)cc1 [Example 75]
rule met

is_below(Ki, 2 nM) for CN(C)c1nc(C(=O)NC(CO)c2ccc(C(F)(F)F)cc2)cc(=O)[nH]1 (stereo not drawn) [Example 206] ?
rule not met

Answer whether the compound CN(C)c1nc(C(=O)N[C@](C)(CO)c2ccc(C(F)(F)F)cc2Cl)cc(=O)[nH]1 [Example 200] has Ki strictly less than 2 nM
rule met

Identify whether the compound CN(C)c1nc(C(=O)N[C@@H](c2ccc(OC(F)F)cc2)C(C)(C)C)cc(=O)[nH]1 [Example 34] records Ki below 2 nM.
rule met

Consider the compound CC[C@@H](NC(=O)c1cc(=O)[nH]c(N(C)C)n1)c1ccc(C(F)F)cc1 [Example 67] . Is its Ki strictly less than 2 nM?
rule not met

Lab log: compare recorded Ki with 2 nM; is it strictly lower for CC(C)[C@@H](NC(=O)c1cc(=O)[nH]c(N(C)C)n1)c1ccc(OC(F)F)c(F)c1 [Example 48] ?
rule met

Field: below-cutoff. Rule: recorded Ki strictly less than 2 nM. Subject: CN(C)c1nc(C(=O)N[C@@H](c2ccc(OC(F)F)c(F)c2)C2(C)CC2)cc(=O)[nH]1 [Example 55]
rule met

I wonder whether CN(C)c1nc(C(=O)N[C@@H](c2ccc(OC(F)(F)F)cc2)C2CC2)cc(=O)[nH]1 [Example 107] has Ki below 2 nM. Can you tell?
rule met

I wonder whether CN(C)c1nc(C(=O)N[C@@H](c2ccc(S(F)(F)(F)(F)F)cc2)C2(C)CC2)cc(=O)[nH]1 [Example 57] has Ki below 2 nM. Can you tell?
rule met

Check if Ki falls below 2 nM for CN(C)c1nc(C(=O)NC(CC#N)c2ccc(C(F)(F)F)cc2)cc(=O)[nH]1 (stereo not drawn) [Example 203] .
rule not met
